target: AMPLITAQ DNA polymerase, FS (Taq FS) (Thermus aquaticus, UniProt P19821, F667Y/G46D); assay: Polymerase end-point (PEP) assay, Taq FS; settings: Taq FS: 68° C.; incorporation concentration at 50%
Sequence (P19821 whole entry G46D/F667Y): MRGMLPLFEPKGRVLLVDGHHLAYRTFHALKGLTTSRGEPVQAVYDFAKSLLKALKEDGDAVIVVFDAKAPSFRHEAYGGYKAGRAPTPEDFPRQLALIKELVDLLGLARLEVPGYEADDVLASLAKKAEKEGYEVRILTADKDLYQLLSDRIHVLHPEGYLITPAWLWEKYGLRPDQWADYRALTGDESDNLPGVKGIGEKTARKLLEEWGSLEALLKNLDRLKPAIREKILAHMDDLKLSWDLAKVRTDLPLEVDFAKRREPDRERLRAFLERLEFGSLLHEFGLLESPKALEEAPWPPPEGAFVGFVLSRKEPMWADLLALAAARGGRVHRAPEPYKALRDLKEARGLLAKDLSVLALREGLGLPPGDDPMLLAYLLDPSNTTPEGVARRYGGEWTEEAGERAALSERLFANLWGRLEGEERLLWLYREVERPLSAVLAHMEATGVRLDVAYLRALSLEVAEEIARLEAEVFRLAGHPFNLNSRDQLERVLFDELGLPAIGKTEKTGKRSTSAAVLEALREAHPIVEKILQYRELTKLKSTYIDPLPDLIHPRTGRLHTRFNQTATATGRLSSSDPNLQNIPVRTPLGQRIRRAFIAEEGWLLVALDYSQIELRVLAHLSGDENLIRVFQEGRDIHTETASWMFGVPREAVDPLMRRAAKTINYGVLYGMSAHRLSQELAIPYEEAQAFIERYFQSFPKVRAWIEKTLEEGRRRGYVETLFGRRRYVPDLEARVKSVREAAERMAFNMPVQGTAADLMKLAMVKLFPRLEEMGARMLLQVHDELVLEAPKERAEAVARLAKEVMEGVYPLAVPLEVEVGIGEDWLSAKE
property.name: pIC50
In textbook form, pIC50 equals minus log to base ten of the concentration in mol/L.

# compound, pIC50
data = [
    ("Nc1ncnc2c1ncn2[C@H]1CC[C@@H](COP(=O)(O)OP(=O)(O)OP(=O)(O)O)O1", 8.48),
    ("O=[N+]([O-])c1ccccc1CNc1ncnc2c1ncn2[C@H]1C[C@H](O)[C@@H](COP(=O)(O)OP(=O)(O)OP(=O)(O)O)O1", 6.05),
]

Switching to the query record.
Inquiry: Which measured pIC50 value corresponds to Nc1ncnc2c1ncn2[C@H]1C[C@H](O)[C@@H](COP(=O)(O)OP(=O)(O)OP(=O)(O)O)O1 [dATP, 2′-deoxyadenosine triphosphate] ?
Reply text: 8.28

---

Listed here are compounds together with their documented IC50.
target: Klenow (3′-exo-) DNA polymerase (Escherichia coli, UniProt P00582, D355A/E357A); construct: Klenow(-exo-) DNA polymerase; assay: Polymerase end-point (PEP) assay, Klenow (3′-exo-); conditions: Klenow (3′-exo-): 37° C.; incorporation concentration at 50%
Sequence (P00582 324-928 D355A/E357A): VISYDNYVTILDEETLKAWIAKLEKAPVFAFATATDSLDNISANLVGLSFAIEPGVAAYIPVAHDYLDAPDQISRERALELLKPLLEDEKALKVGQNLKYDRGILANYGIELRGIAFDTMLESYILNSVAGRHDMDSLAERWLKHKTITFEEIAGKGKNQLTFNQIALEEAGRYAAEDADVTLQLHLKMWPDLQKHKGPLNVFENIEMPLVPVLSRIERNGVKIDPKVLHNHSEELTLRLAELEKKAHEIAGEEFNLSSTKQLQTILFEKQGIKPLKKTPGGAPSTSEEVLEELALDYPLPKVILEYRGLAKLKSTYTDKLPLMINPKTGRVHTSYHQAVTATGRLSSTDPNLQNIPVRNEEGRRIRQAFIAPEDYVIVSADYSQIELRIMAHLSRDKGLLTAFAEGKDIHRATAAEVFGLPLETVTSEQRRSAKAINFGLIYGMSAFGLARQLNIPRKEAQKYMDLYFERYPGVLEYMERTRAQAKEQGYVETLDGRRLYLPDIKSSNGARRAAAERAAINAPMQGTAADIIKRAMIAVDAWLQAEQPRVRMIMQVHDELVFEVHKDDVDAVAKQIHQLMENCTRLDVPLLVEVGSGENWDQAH
Quick reminder: number only, in nM, skip the unit.

# compound, reported.value
records = [
    ("Nc1ncnc2c1ncn2[C@H]1C[C@H](O)[C@@H](COP(=O)(O)OP(=O)(O)OP(=O)(O)O)O1 [dATP, 2′-deoxyadenosine triphosphate]", 1.6),
    ("O=[N+]([O-])c1ccccc1CNc1ncnc2c1ncn2[C@H]1C[C@H](O)[C@@H](COP(=O)(O)OP(=O)(O)OP(=O)(O)O)O1", 4.3),
]

Switching to the query record.
Inquiry: Which measured IC50 value corresponds to Nc1ncnc2c1ncn2[C@H]1CC[C@@H](COP(=O)(O)OP(=O)(O)OP(=O)(O)O)O1 ?
Reply text: 29

The origin of these recorded values is patent US7964352B2.
